From: the nanobody polyreactivity screen of Harvey et al. (2022)

experiment: yeast display, Sf9 membrane polyspecificity reagent, FACS + sequencing; frameworks hold sequencing errors
MEASUREMENT NAME: polyreactivity (PSR sort gate)

>>> result("QVQLEESGGGLVQAGGSLRLSCAASGFICKRYARGWYRQAPGKERELVAAITTSGGRTYYADSVKGRFTISRDNAKNTVYLQMNSLIPEDTAVYYCAAAQPGTNAYRVGSWGQGTQVTVSS")
"high polyreactivity"
>>> result("QVQLVESGGGIVQAGGSLRLSCAASGYIFDHYAMGWYRQAPGKERELVAAISRSAGSTYYADSVKGRFTISRDNAKNTVYLQMKSLKPEDTAVYYCNAVVAVRSWRKYEYWGQGTQVTVSS")
"high polyreactivity"

* * *

test: yeast display, Sf9 membrane polyspecificity reagent, FACS + sequencing; frameworks hold sequencing errors
MEASUREMENT NAME: polyreactivity (PSR sort gate)

>>> result("QVQHVESGGGLVQAGGRLRLSCAASGSIFVAYAMGWSRTAPGKERELVAAITYSAGSTYYADSVKGRITISRDNAKNTVYLQMNSLKPEDTAVYYCAADAMVFSFIGYEYWGQGTQVTVSS")
"low polyreactivity"
>>> result("QVQLVESGGGLVQAGGSLRLSCAASGFTFYWYDMGWDRQAPGKEREFVAAIVQSGGSTYYADSVKGRFSISRDNAKITVYLQMKSLKPEDTAVYYGAARYILWDGDSWTEFDYWGQGTQVTVSS")
"low polyreactivity"

* * *

experiment: yeast display, Sf9 membrane polyspecificity reagent, FACS + sequencing; frameworks hold sequencing errors
MEASUREMENT NAME: polyreactivity (PSR sort gate)

As a guide, the following entries are already answered.
>>> result("QVQLVESAGGLVQAGGSLRLSCAASGFIFHRYAMGWYRQAPGKERELVAAITGRGSSTYYADSVKGRFTISRDNAKNTVYLQMNSLKPEDTAVYYCNAYRYQVYDTGWFGYWGQGTQVTVSS")
"high polyreactivity"
>>> result("QVQLVESGGGLVQAGGSLRLSCAASGFIFSGNAMGWYILAPGKERELVAGIRSLGGTTSYADSVKGRFTISRDNAKNTVYLQMNSMKPEDTAVYYCAAGYGAEFDYWGQGTQVTVSS")
"low polyreactivity"
>>> result("QVQLVESGGGLVQAGGSLRLSCAASGLTFAYYAMGWYRQAPGKERELVATISRSGSTYYADSVKGRFTISRDNAKNTVYLQMNSLKPEDTAVDYCATAYHHYVYRQYTFGRGIYDFWGQGTQVTVSS")
"high polyreactivity"
>>> result("QVQLVESGGGLVQAGGILRLSCAASGITFPANAMGWYRQAPGKQRELVAAISSYGGSTYYADSVKGRFTISRDNAKNNVYFQMNSLKPEDTAVYYCAAYLSSLGRKYYYWGQGTQVTVSS")
"high polyreactivity"
>>> result("QVQLVESGGGLVQAGGSLRLSCAASGSTFDGNAMGWYRQAPGKESELVAAISWSGGSTYYADSVKGRFTISRDNAKNSVYLQLNSLKPEDTAVYYCNAVHYPYQHMGSWGQGTQVSVSS")
"low polyreactivity"

Task item: Quick one: polyreactivity (PSR sort gate) of "QVQLVESGGGLVQAGGSLRLICAASGSIFTSNAMGWYRQAPGKERELVAAITSDGAITYADSVKGRFTISRDNAKNTVYLQMNSLKPEDTAVYYCATEIEYYVGSVADMGYWGQGTQVTVSS" ?
Reply: low polyreactivity

Task item: Also, "QVQLVESGGGVVQAGGSLRLSCAASGRTIYFYAMGWYRQAPGKERELVAAITGSGGRTYYADSVKGRFTISRDHAKNTVYLQMNSLKTEDTAVYYCAAVPPPLARLYVAAKRFDSWGQGTQVTVSS" please.
Reply: low polyreactivity

* * *

assay: yeast display, Sf9 membrane polyspecificity reagent, FACS + sequencing; frameworks hold sequencing errors
MEASUREMENT NAME: polyreactivity (PSR sort gate)

A selection of reference data follows.
>>> result("QVQLVESGGGLVQAGGSLRLSCAASGRILVYYAMGWYRQAPGKEREFVAAISQRGGSTYYADSVKGRFTISRDNAKNTVYLQMNSLKPEDTAVYYCATRPIQYRRGYDYWGQGTQVTVSS")
"high polyreactivity"
>>> result("QVQLVESGGGLVQAGGSLRLSCAASGLTSDYNAMGWYRQAPGKERELVAAISSGGRTYYADSVKGRFTISRDNAKNTVYLQMNSLKPEDTAVYYCAAEFRVLRGYQYDYWGQGTQVTVSS")
"high polyreactivity"
>>> result("QVQLVESGGGLVQAGGSLRLSCAASGRIIDANVMGWYRQAPGKERELVAAISASAGSTSYADSVKGRFTISRDNAKNTVYLQMNSLKPEDTAVYYCAADPYQLWHYYYFGMDYWGQGTQVTVSS")
"low polyreactivity"
>>> result("QVQIVESGGGLVHAGGSLRLSCAASGRNIPPYVIAWYRQAPGKEREMVAAMSWRGGNTYYADSVKGRFTISRDNAKNTVYLQMNSLKPEDTAVYYCAAKAYRRYSIPPYGYWGQGTQVTVSW")
"low polyreactivity"

--- query ---
Task item: # polyreactivity (PSR sort gate) lookup, item "QVQLVESGGGLVQAGGSLRLSCAASGSTFRSYTMGWYRHAPGKEMELVARISRSGGSTYYADSVKGRFTISRDNAKNTVYLQMNSLKPEDTAVYYCAALYYVKPGQRYDYWGQGTQVTVSS"
Reply: high polyreactivity

* * *

test: yeast display, Sf9 membrane polyspecificity reagent, FACS + sequencing; frameworks hold sequencing errors
MEASUREMENT NAME: polyreactivity (PSR sort gate)

// worked examples, polyreactivity (PSR sort gate) included
>>> result("QVQLVESGGGLVQAGGSHRLSCASSGRTLLAYAMGWYIQAPGKEREFVDAISSRGVRTYYADSVKGRFTISRDNANNTVYLQMNSLKPEDTAVYYCASRGTKSIKDVPGIRYGYWGQGTQVTVSS")
"high polyreactivity"
>>> result("QVQLVESGGGLVQAGGSLRLSCAASGSIFRYYAMGWYRPAPGKERELVAAISSGGNTKYADSVKGRFTISRDNAKNTVYLQMNSLKPADTAVYYCNAAGKACGDYDYWGQGTQVTVSS")
"low polyreactivity"
>>> result("QVQLVESGGGLVQAGGSLRLSCAASGLIFAVYAMGWYRQAPGKERELVAGISASAASTYYADSVKGRFTISRDNAKNTVYLQMNSLKPEDTAVYYCVAVLPARGYYWGQGTQVTVSS")
"high polyreactivity"
>>> result("QVQLEDSLGGLVQAGGSLRLSCAASGGIFGLYDMGWYRQEPGKERELVAAISWSGGDTYYADSVKGRFTISRDNAKNTVYLQMNSLKPEDTAVYYCAADTYYYSGYEYDYWGQGTQVTVSS")
"high polyreactivity"

Task item: For "QVQLVESGGGLVQAGGSLRLSCAASGSTFLVNAMGLYRQAPGKEREFVAAITGNAGSTYYADSVKGRFTISRDNAKITVYLQMNSLIPEDTAVYYCARTRRTPRGYLDFSLREYDYWGQGTQVTVSS" , what is its reported polyreactivity (PSR sort gate)?
Reply: low polyreactivity

* * *

assay: yeast display, Sf9 membrane polyspecificity reagent, FACS + sequencing; frameworks hold sequencing errors
MEASUREMENT NAME: polyreactivity (PSR sort gate)

>>> result("QVQLVESGGGLVQAGGSLRLSCAASGRTLYGYAMGWYRQAPGKERELVAAISKRGTRTYHADSVKGRFTISRDNAKNTVYLQMNSLKPEDTAVYFCGARYPPDEATMEYWGQGTQVTVSS")
"high polyreactivity"
>>> result("QVQLVESGGGLVQAGGSLRLSCAASGFTFVYYAMGWYRPAPGKERDLVATISGNGGRTYYADSVKGRFTISRDNAKNTVYLQMNSLKPEDTAVYYCATDVGFGRKQRPHRPGYGYWGQGTQVTVSS")
"low polyreactivity"
>>> result("QVQLVESGGGLVQAGGSLRLSCAASGRIFYTNAMGWYRQAPGKERELVAVISWGGDTTYYADSVKGRFTISRDNATNTVYLQMNSLKPEDTAVYYCNADWGPTYEIYDSWGQGTQVTVSS")
"low polyreactivity"
>>> result("QVQLVESGGGLVQAGGSLRLSCAASGRIFYSNTMGWYRQAPGKERELVAAISRSGGRTYYADSVKGRFTISRDNAKNTVSLQLNSLKPEDTAVYYCNTAYCRNPYYKGYYWGQGTQVTVSS")
"high polyreactivity"
>>> result("QVQLVESGGGLVQAGGSLRLSCAASGSNFGYYPMGWYRQATGKERELVAAISWSDGSTYYADSVKGRFTISRDNAKNTVYLQMNSRKPEDTAVYYCAARFTPYITSDDGHYDYWGQGTQVTVSS")
"low polyreactivity"
>>> result("QVQLQESGGGLVQAGGSLRLSCAASGYISHADEMGWYRQAPGKEHELVASISNGGSTNYADSVKGRFTISRDNAKNTVYLQMNSLKSEDTAVYYCAAWTGQVDIHYYWGQGTQETVSS")
"low polyreactivity"
>>> result("QVQLVESGGGLVQAGGSLRLSCAASGRTFYYYAMGWYRQAPGKERELVASISSSGRTYYADSVKGRFTISRDNAKNTVYLQMNSLKPEDTAVYYCAKVWSSSYYRYGYWGQGTQVTVSS")
"high polyreactivity"
>>> result("QVQLVESGAGLGQAGVSLRLSCAASGSTFPTYAMGWYRPAPGKERELVAAIDWSDGTTYYADSVKGRFTISRDNANNTVYLQMNSLKPDETAGYYCAASLSLSEYDYWGQATQVTVSS")
"low polyreactivity"

Task item: # lookup: polyreactivity (PSR sort gate) of "HVQHVESAGGLVQAGGSLRLSCAASGSIFTYNALGGYIQAPGKERELVAAIDYSGGSTYYADSVKGRFTISRDNAKNTVYLQMNSLKPEDTAVYYCAAPWVPYPGYSLYGYDYWGQGTQVTVSS"
Reply: low polyreactivity

Task item: Field entry: "QDQLVESGGGLVQAGGSLRLSCAASGRTFKINAMGWYRHAPGTERELVAAITYSGCTTYYADSVKGRFTISRDNAKNTVYLQMNSLKPEDTAVYYCATPSRKSGVGYPSYNYWGQGTQVTVSS"
Reply: high polyreactivity

Task item: Quick one: "HVQLQESGVGLVQAGGSLRLSCAASGTISQEYWMGWYRQAPGKEREFVAAIGLGSNTNYADSLKGRFTISRDNSTNTVFLQMNSLKPEDTAVYYCAVSVWQYSDHVYRGQGTQVTVSS"
Reply: low polyreactivity
